Where these numbers come from: ChEMBL document CHEMBL3885861

species on record: Rattus norvegicus; assay: Open TG-GATES - Regimen: Daily Repeat; type: toxicity, organism-based, Sprague-Dawley; parameters: regimen Daily Repeat, gender Male, age 6 weeks; conditions: in vivo, po, 0 mg/kg, […], tissue Blood, route gavage, dose level Control, time 14 day
Item-by-item account of Neu
Write it as a number; the unit % goes unstated.

Check out these entries, answers already filled in.
- O=C1NC(=O)C(c2ccccc2)(c2ccccc2)N1: 14.8
- Cc1cccc(Nc2cc(Cl)nc(SCC(=O)O)n2)c1C: 18.6

Record request: Neu value, item O=P1(N(CCCl)CCCl)NCCCO1 (stereo not given) [CYCLOPHOSPHAMIDE ANHYDROUS]
14.6

Record request: Neu value, item `C=CCO`
17.6

Record request: Neu value, item CS(=O)(=O)Nc1ccc([N+](=O)[O-])cc1Oc1ccccc1 [NIMESULIDE]
13.8

###

species: Rattus norvegicus; test: Open TG-GATES - Regimen: Single; assay type: toxicity, organism-based, Sprague-Dawley; design: regimen Single, gender Male, age 6 weeks; conditions: in vivo, po, 0 mg/kg, 3 h, tissue Plasma, route gavage, dose level Control
outcome.measure: DBIL (mg/dL)
Write it as a number; the unit mg/dL goes unstated.

Check out these entries, answers already filled in.
• O=C1CN(/N=C/c2ccc(-c3ccc([N+](=O)[O-])cc3)o2)C(O)=N1 = 0.058
• Cn1cnc([N+](=O)[O-])c1Sc1ncnc2nc[nH]c12 = 0
• C=CCO = 0.3
• O=C1NC(=O)C(c2ccccc2)(c2ccccc2)N1 = 0.018
• Cc1cnc(NC(=O)C2=C(O)c3ccccc3S(=O)(=O)N2C)s1 = 0.06

Record request: DBIL value, item S=C=Nc1cccc2ccccc12 [1-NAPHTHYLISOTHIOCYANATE]
0.07

Record request: DBIL value, item `Cc1cccc(Nc2cc(Cl)nc(SCC(=O)O)n2)c1C`
0.036

Record request: DBIL value, item CNCCC(Oc1ccc(C(F)(F)F)cc1)c1ccccc1.Cl (stereo unspecified) [FLUOXETINE HYDROCHLORIDE]
0.014

Record request: DBIL value, item CS(=O)(=O)Nc1ccc([N+](=O)[O-])cc1Oc1ccccc1 [NIMESULIDE]
0.048

Record request: DBIL value, item COc1ccc(Cl)cc1C(=O)NCCc1ccc(S(=O)(=O)NC(=O)NC2CCCCC2)cc1 [GLYBURIDE]
0.2

Record request: DBIL value, item COc1ccc(O)c(C(C)(C)C)c1.COc1ccc(O)cc1C(C)(C)C [BUTYLATED HYDROXYANISOLE]
0.03

###

species: Rattus norvegicus; assay: Open TG-GATES - Regimen: Daily Repeat; type: toxicity, organism-based, Sprague-Dawley; parameters: regimen Daily Repeat, gender Male, age 6 weeks; conditions: in vivo, po, 0 mg/kg, 72 h, tissue Plasma, route gavage, dose level Control, time 3 day
Item-by-item account of LDH
Write it as a number; the unit IU/L goes unstated.

Check out these entries, answers already filled in.
• O=C1CN(/N=C/c2ccc(-c3ccc([N+](=O)[O-])cc3)o2)C(O)=N1 [DANTROLENE] = 85
• O=P1(N(CCCl)CCCl)NCCCO1 (stereo unspecified) [CYCLOPHOSPHAMIDE ANHYDROUS] = 190.6
• Cc1cnc(NC(=O)C2=C(O)c3ccccc3S(=O)(=O)N2C)s1 [MELOXICAM] = 199.2
• Cn1cnc([N+](=O)[O-])c1Sc1ncnc2nc[nH]c12 [AZATHIOPRINE] = 220.4
• COc1ccc(Cl)cc1C(=O)NCCc1ccc(S(=O)(=O)NC(=O)NC2CCCCC2)cc1 [GLYBURIDE] = 159.2

Record request: LDH value, item CS(=O)(=O)Nc1ccc([N+](=O)[O-])cc1Oc1ccccc1 [NIMESULIDE]
81.6

###

organism: Rattus norvegicus; assay: Open TG-GATES - Regimen: Single; type: toxicity, organism-based, Sprague-Dawley; design: regimen Single, gender Male, age 6 weeks; details: in vivo, po, 0 mg/kg, 24 h, tissue Plasma, route gavage, dose level Control
outcome.measure: CRE (mg/dL)
Write it as a number; the unit mg/dL goes unstated.

Check out these entries, answers already filled in.
• COc1ccc(O)c(C(C)(C)C)c1.COc1ccc(O)cc1C(C)(C)C [BUTYLATED HYDROXYANISOLE] = 0.2
• S=C=Nc1cccc2ccccc12 [1-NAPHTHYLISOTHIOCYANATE] = 0.4
• COc1ccc(Cl)cc1C(=O)NCCc1ccc(S(=O)(=O)NC(=O)NC2CCCCC2)cc1 [GLYBURIDE] = 0.4

Record request: CRE value, item Cc1cnc(NC(=O)C2=C(O)c3ccccc3S(=O)(=O)N2C)s1 [MELOXICAM]
0.4

Record request: CRE value, item Cn1cnc([N+](=O)[O-])c1Sc1ncnc2nc[nH]c12 [AZATHIOPRINE]
0.1

Record request: CRE value, item CNCCC(Oc1ccc(C(F)(F)F)cc1)c1ccccc1.Cl (configuration not stated) [FLUOXETINE HYDROCHLORIDE]
0.4

Record request: CRE value, item O=C1CN(/N=C/c2ccc(-c3ccc([N+](=O)[O-])cc3)o2)C(O)=N1 [DANTROLENE]
0.5

###

Item-by-item account of DBIL
species: Rattus norvegicus; experiment: Open TG-GATES - Regimen: Daily Repeat; format: toxicity, organism-based, Sprague-Dawley; design: regimen Daily Repeat, gender Male, age 6 weeks; settings: in vivo, po, 0 mg/kg, […], tissue Plasma, route gavage, dose level Control, time 7 day
Write it as a number; the unit mg/dL goes unstated.

Check out these entries, answers already filled in.
• COc1ccc(Cl)cc1C(=O)NCCc1ccc(S(=O)(=O)NC(=O)NC2CCCCC2)cc1 [GLYBURIDE] = 0.1
• Cn1cnc([N+](=O)[O-])c1Sc1ncnc2nc[nH]c12 [AZATHIOPRINE] = 0
• Cc1cnc(NC(=O)C2=C(O)c3ccccc3S(=O)(=O)N2C)s1 [MELOXICAM] = 0.082
• C=CCO [ALLYL ALCOHOL] = 0.098
• O=C1CN(/N=C/c2ccc(-c3ccc([N+](=O)[O-])cc3)o2)C(O)=N1 [DANTROLENE] = 0.002
• Cn1c(=O)c2c(ncn2C)n(C)c1=O [CAFFEINE] = 0

Here's the next entry for you.
Record request: DBIL value, item O=P1(N(CCCl)CCCl)NCCCO1 (stereo unspecified) [CYCLOPHOSPHAMIDE ANHYDROUS]
0

###

Item-by-item account of gamma-GTP
species: Rattus norvegicus; assay: Open TG-GATES - Regimen: Daily Repeat; type: toxicity, organism-based, Sprague-Dawley; parameters: regimen Daily Repeat, gender Male, age 6 weeks; settings: in vivo, po, 0 mg/kg, […], tissue Plasma, route gavage, dose level Control, time 14 day
Write it as a number; the unit IU/L goes unstated.

Check out these entries, answers already filled in.
- CS(=O)(=O)Nc1ccc([N+](=O)[O-])cc1Oc1ccccc1 [NIMESULIDE]: 1
- O=P1(N(CCCl)CCCl)NCCCO1 (stereo unspecified) [CYCLOPHOSPHAMIDE ANHYDROUS]: 1.4
- O=C1NC(=O)C(c2ccccc2)(c2ccccc2)N1: 1.8
- Cc1cnc(NC(=O)C2=C(O)c3ccccc3S(=O)(=O)N2C)s1: 1
- Cc1cccc(Nc2cc(Cl)nc(SCC(=O)O)n2)c1C: 1.2

Here's the next entry for you.
Record request: gamma-GTP value, item `Cn1c(=O)c2c(ncn2C)n(C)c1=O`
2.4

###

species on record: Rattus norvegicus; assay: Open TG-GATES - Regimen: Daily Repeat; type: toxicity, organism-based, Sprague-Dawley; set-up: regimen Daily Repeat, gender Male, age 6 weeks; conditions: in vivo, po, 0 mg/kg, […], tissue Kidney, route gavage, dose level Control, time 28 day
Item-by-item account of KIDNEY_TOTAL

Check out these entries, answers already filled in.
* Cn1c(=O)c2c(ncn2C)n(C)c1=O | 2.9 g
* COc1ccc(O)c(C(C)(C)C)c1.COc1ccc(O)cc1C(C)(C)C [BUTYLATED HYDROXYANISOLE] | 2.6 g
* Cc1cnc(NC(=O)C2=C(O)c3ccccc3S(=O)(=O)N2C)s1 | 2.7 g
* COc1ccc(Cl)cc1C(=O)NCCc1ccc(S(=O)(=O)NC(=O)NC2CCCCC2)cc1 [GLYBURIDE] | 2.7 g
* Cn1cnc([N+](=O)[O-])c1Sc1ncnc2nc[nH]c12 | 2.4 g

Record request: KIDNEY_TOTAL value, item O=P1(N(CCCl)CCCl)NCCCO1 (stereo unspecified) [CYCLOPHOSPHAMIDE ANHYDROUS]
2.6 g

###

species: Rattus norvegicus; assay: Open TG-GATES - Regimen: Single; assay type: toxicity, organism-based, Sprague-Dawley; design: regimen Single, gender Male, age 6 weeks; settings: in vivo, po, 0 mg/kg, 6 h, tissue Blood, route gavage, dose level Control
Item-by-item account of MCV
Write it as a number; the unit fL goes unstated.

Check out these entries, answers already filled in.
* C=CCO | 62.1
* S=C=Nc1cccc2ccccc12 [1-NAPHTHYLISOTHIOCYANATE] | 61.2
* Cc1cnc(NC(=O)C2=C(O)c3ccccc3S(=O)(=O)N2C)s1 | 64.4
* COc1ccc(O)c(C(C)(C)C)c1.COc1ccc(O)cc1C(C)(C)C [BUTYLATED HYDROXYANISOLE] | 62.2
* COc1ccc(Cl)cc1C(=O)NCCc1ccc(S(=O)(=O)NC(=O)NC2CCCCC2)cc1 [GLYBURIDE] | 62.4
* Cn1cnc([N+](=O)[O-])c1Sc1ncnc2nc[nH]c12 | 64.1

Record request: MCV value, item `Cc1cccc(Nc2cc(Cl)nc(SCC(=O)O)n2)c1C`
64
